target: CUG-BP2 RRM3 wild-type (UniProt O95319 416-508, Y508W); experiment: ITC; 25 C; 20 mM K phosphate pH 5.8, 10 mM NaCl, 0.1% beta-mercaptoethanol, 25 C (NMR titrations and ITC); hnRNP A1: 10 mM Na phosphate pH 6.5, 10 mM beta-mercaptoethanol; conditions: protein: recombinant
Sequence (O95319 416-508 Y508W): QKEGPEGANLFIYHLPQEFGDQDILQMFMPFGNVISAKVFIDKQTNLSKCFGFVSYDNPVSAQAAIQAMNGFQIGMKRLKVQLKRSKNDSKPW
READOUT KIND: Kd (nM)
Numeric answer only, unit nM assumed.

[Q] Request the reported Kd associated with UGUGU (ssRNA)
[A] 1040
